Please go through the items and note down their pIC50.
Tested on: MMP1 expression by activated synovial fibroblasts (RASFs)
RUN DESCRIPTION: 'MMP assay': complex trigger-induced MMP1 expression by synovial fibroblasts (MMP1 ELISA)
Assay type: cell-based
APPLIED CONDITIONS: Homo sapiens, Fibroblast; RASFs, complex trigger, 48 hrs; read-out: MMP1 IC50
pIC50: −log10 of the molar value.

(Q) Please report the recorded pIC50 for `CCOc1cc(-c2cnc(Nc3ccc(N4C[C@@H]5C[C@H]4CN5C(C)C)cc3)c3nccn23)ccn1` .
(A) < 6.00

(Q) Same again, this time with `CC(C)N1C[C@@H]2C[C@H]1CN2c1ccc(Nc2ncc(-c3cc[nH]c(=O)c3)n3ccnc23)cc1`
(A) 6.00 to 9.00

(Q) Check `CC(C)N1C[C@@H]2C[C@H]1CN2c1ccc(Nc2ncc(-c3noc(C(N)=O)n3)n3ncnc23)cc1` too.
(A) < 6.00

---

For each record, write down the corresponding IC50.
TESTED SYSTEM: UniProt Q8IW41
Sequence (Q8IW41 1-471 isoform Q8IW41-2): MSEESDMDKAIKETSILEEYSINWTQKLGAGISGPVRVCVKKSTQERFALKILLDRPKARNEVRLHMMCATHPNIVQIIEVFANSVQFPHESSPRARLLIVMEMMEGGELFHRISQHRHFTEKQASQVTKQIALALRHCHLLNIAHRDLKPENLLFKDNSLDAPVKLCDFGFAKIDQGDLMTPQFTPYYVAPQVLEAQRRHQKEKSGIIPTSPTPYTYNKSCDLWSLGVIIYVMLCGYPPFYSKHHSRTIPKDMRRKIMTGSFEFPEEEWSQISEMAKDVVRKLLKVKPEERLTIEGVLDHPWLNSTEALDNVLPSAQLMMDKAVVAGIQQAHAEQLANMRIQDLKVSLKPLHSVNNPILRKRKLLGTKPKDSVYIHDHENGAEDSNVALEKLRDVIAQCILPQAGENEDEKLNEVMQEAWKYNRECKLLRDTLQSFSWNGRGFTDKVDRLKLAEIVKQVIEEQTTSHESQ

(Q) Form field: IC50 recorded for CC(C)N1C[C@@H]2C[C@H]1CN2c1ccc(Nc2ncc(-c3cc(C(N)=O)n[nH]3)n3ncnc23)cc1 [Compound 5] with UniProt Q8IW41 (enter value)
(A) 101 to 500 nM

(Q) What do we get for CC(C)N1CC2CCC(C1)N2c1ccc(Nc2ncc(-c3coc(C(N)=O)c3)n3ccnc23)cc1 [Compound 11] ?
(A) 101 to 500 nM

(Q) Now try CC(C)N1C[C@@H]2C[C@H]1CN2c1ccc(Nc2ncc(-c3ccc4c(c3)CNC4=O)n3ncnc23)cc1 [Compound 1] .
(A) 0.01 to 100 nM

(Q) # iterate: CC(C)N1CC2CCC1CN2c1ccc(Nc2ncc(-c3coc(C(N)=O)c3)n3ccnc23)cc1 (centres unmarked) [Compound 10]
(A) 101 to 500 nM

(Q) Now give it for CC(C)N1CC2CCC1CN2c1ccc(Nc2ncc(-c3coc(C(N)=O)c3)n3ncnc23)cc1 (centres unmarked) [Compound 9] too.
(A) 0.01 to 100 nM

(Q) Would you kindly repeat that for CC(C)(C)N1C[C@@H]2C[C@H]1CN2c1ccc(Nc2ncc(-c3ccc4c(c3)CNC4=O)n3ncnc23)cc1 [Compound 16] ?
(A) 101 to 500 nM

(Q) Ok, now CC(C)N1C[C@@H]2C[C@H]1CN2c1ccc(Nc2ncc(-c3ccc4c(c3)CNC4=O)n3ncnc23)cn1 [Compound 18]
(A) 101 to 500 nM

(Q) Follow-up item: CC(C)N1C[C@@H]2C[C@H]1CN2c1ccc(Nc2ncc(-c3cc[nH]c(=O)c3)n3ccnc23)cc1 [Compound 8]
(A) 101 to 500 nM

(Q) Another compound: CC(C)N1C[C@@H]2C[C@H]1CN2c1ccc(Nc2ncc(-c3noc(C(N)=O)n3)n3ncnc23)cc1 [Compound 23]
(A) > 1000 nM

(Q) What do you get for CC(C)N1C[C@@H]2C[C@H]1CN2c1ccc(Nc2ncc(-c3coc(C(N)=O)c3)n3ncnc23)cc1 [Compound 2] ?
(A) 0.01 to 100 nM

(Q) Now give it for CC(C)N1C[C@@H]2C[C@H]1CN2c1cccc(Nc2ncc(-c3ccc4c(c3)CNC4=O)n3ncnc23)c1 [Compound 26] too.
(A) 101 to 500 nM

(Q) Can you handle CC(C)N1C[C@@H]2C[C@H]1CN2c1cccc(Nc2ncc(-c3coc(C(N)=O)c3)n3ncnc23)c1 [Compound 24] next?
(A) 0.01 to 100 nM

(Q) And for CC(C)N1C2CCC1CN(c1ccc(Nc3ncc(-c4coc(C(N)=O)c4)n4ccnc34)cc1)C2 [Compound 14] ?
(A) 101 to 500 nM

(Q) Cool, now CC(C)(C)N1C[C@@H]2C[C@H]1CN2c1ccc(Nc2ncc(-c3coc(C(N)=O)c3)n3ccnc23)cc1 [Compound 6]
(A) 101 to 500 nM

(Q) Okay, and CC(C)N1C2CCC1CN(c1ccc(Nc3ncc(-c4coc(C(N)=O)c4)n4ncnc34)cc1)C2 [Compound 12] ?
(A) 0.01 to 100 nM

(Q) Please give the result for CC(C)N1CC2CCC(C1)N2c1ccc(Nc2ncc(-c3coc(C(N)=O)c3)n3ncnc23)cc1 [Compound 13] too.
(A) 0.01 to 100 nM

(Q) Please do the same for CCOc1cc(-c2cnc(Nc3ccc(N4C[C@@H]5C[C@H]4CN5C(C)C)cc3)c3ncnn23)ccn1 [Compound 19] as well.
(A) > 1000 nM

meta.source: patent US8012983B2
